Test system: UACC-257 melanoma
Experiment: NCI-60 one-dose screen, 48 h (100 = growth as untreated, 0 = no growth, -100 = all killed)
Details: 10 µM unless noted
The panel holds about 83,000 compounds, 20% with a hit somewhere; the sample as a whole holds those more often.
assay-endpoint: growth (%)
One number for each entry, in %.

{"compound": "Cn1cc(-c2cnn3c(N)c(Br)c([C@@H]4CCCNC4)nc23)cn1", "growth [%]": 70.7}
{"compound": "Nc1c(Cl)cccc1[N+](=O)[O-]", "growth [%]": 108}
{"compound": "COc1ccc(Cc2cc(-c3ccccc3C)n[nH]c2=O)cc1", "growth [%]": 119}
{"compound": "Cn1ccnc1C(=O)/C=C/c1ccc(CC(=O)Nc2ccc(C(F)(F)F)cc2)cc1", "growth [%]": 77.9}
{"compound": "COC[C@@H](C)n1c(C2CCOCC2)nc2c1C1C=C(OC)C(c3c(C)noc3C)=CC1N=C2 (stereo partly specified)", "growth [%]": 41.4}

For every item in the list below, what is its measured growth?
1. COc1cc2c(Oc3ccc(NC(=O)C4(C(=O)Nc5ccc(F)cc5)CC4)cc3F)ccnc2cc1OCCCN1CCOCC1
2. CCN(CC)CCN1C(=O)c2cccc3c(-c4ccc5c(c4)ncn5C4CCCCC4)ccc(c23)C1=O
3. Cc1ccc(-n2nc(C(C)(C)C)cc2NC(=O)NCc2cc(F)ccc2Oc2ccc3c(cnn3CCO)c2)cc1
4. COc1ccc(Cl)c(Nc2nc3ccccc3nc2NS(=O)(=O)c2cccc(NC(=O)C(C)(C)N)c2)c1

Output:
-85.3
-15
-11.2
56.9

Would you mind listing growth for each of the following compounds?
1. CN1CCN(CCCOc2cccc3nc(Nc4ccc(Cl)c(C(F)(F)F)c4)ccc23)CC1
2. CS(=O)(=O)CCNCc1ccc(-c2ccc3ncnc(Nc4ccc(OCc5cccc(F)c5)c(Cl)c4)c3c2)o1

Output:
[59.3, -94.1]
